# maps each entry to its IC50
Experimental system: human CCK2i4svR splice variant (Homo sapiens, UniProt P32239)
Construct: membrane homogenates
Sequence (P32239 1-516 isoform P32239-2): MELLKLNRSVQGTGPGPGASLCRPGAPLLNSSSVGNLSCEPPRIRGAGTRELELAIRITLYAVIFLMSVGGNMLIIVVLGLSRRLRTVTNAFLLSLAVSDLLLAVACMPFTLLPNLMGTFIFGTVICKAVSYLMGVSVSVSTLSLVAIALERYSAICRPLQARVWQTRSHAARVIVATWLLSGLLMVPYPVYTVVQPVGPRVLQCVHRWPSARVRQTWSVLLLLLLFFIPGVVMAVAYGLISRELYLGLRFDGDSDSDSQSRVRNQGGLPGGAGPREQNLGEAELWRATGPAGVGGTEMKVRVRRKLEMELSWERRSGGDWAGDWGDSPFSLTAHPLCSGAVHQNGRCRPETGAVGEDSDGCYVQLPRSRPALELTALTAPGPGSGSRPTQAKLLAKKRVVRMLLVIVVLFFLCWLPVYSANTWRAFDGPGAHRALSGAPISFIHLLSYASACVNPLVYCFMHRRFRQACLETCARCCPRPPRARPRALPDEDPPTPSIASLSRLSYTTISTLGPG
Experiment notes: Competition binding against [125I][I-Tyr12,Leu15]gastrin-17 in HEK293-CCK2i4svR cell membranes
Condition info: vs [125I][I-Tyr12,Leu15]gastrin-17, HEK293-CCK2i4svR cell membranes, 1 h 22 °C; mean ± SD
Expressed in nM, but write only the number.

Example molecules with recorded IC50:
CC(C)(C)C(=O)CN1C(=O)[C@H](NC(=O)Nc2cccc(C(=O)NCCOCCOCCOCCNC(=O)[C@H](CCC(=O)O)NC(=O)CN3CCN(CC(=O)[O-])CCN(CC(=O)[O-])CCN(CC(=O)[O-])CC3)c2)CN(C2CCCCC2)c2ccccc21.[Lu+3] [[^natLu]Lu-GAS1] = 12.4
CC(C)(C)C(=O)CN1C(=O)[C@H](NC(=O)Nc2cccc(C(=O)NCCOCCOCCOCCNC(=O)[C@H](CCC(=O)O)NC(=O)CN3CCN(CC(=O)O)CCN(CC(=O)O)CCN(CC(=O)O)CC3)c2)CN(C2CCCCC2)c2ccccc21 [GAS1, DOTA-DGlu-HN(PEG3)NH-Z360] = 5.9
CC(C)(C)C(=O)CN1C(=O)[C@H](NC(=O)Nc2cccc(C(=O)NCCOCCOCCOCCNC(=O)[C@H](CCC(=O)O)NC(=O)CCC(C(=O)O)N3CCN(CC(=O)O)CCN(CC(=O)O)CCN(CC(=O)O)CC3)c2)CN(C2CCCCC2)c2ccccc21 (some centres unmarked) [GAS3, DOTAGA-DGlu-HN(PEG3)NH-Z360] = 3.1

Lookup: Respond only with IC50 recorded for CC(C)(C)C(=O)CN1C(=O)C(NC(=O)Nc2cccc(C(=O)O)c2)CN(C2CCCCC2)c2ccccc21 (centres unmarked) [Z360]
Found: 1.2

Lookup: Respond only with IC50 recorded for CC(C)(C)C(=O)CN1C(=O)[C@H](NC(=O)Nc2cccc(C(=O)NCCOCCOCCOCCNC(=O)[C@H](CCC(=O)O)NC(=O)CCC(C(=O)[O-])N3CCN(CC(=O)[O-])CCN(CC(=O)[O-])CC3)c2)CN(C2CCCCC2)c2ccccc21.[Ga+3] (some centres unmarked) [[^natGa]Ga-GAS2]
Found: 8.8

Lookup: Respond only with IC50 recorded for CC(C)(C)C(=O)CN1C(=O)[C@H](NC(=O)Nc2cccc(C(=O)NCCOCCOCCOCCNC(=O)[C@H](CCC(=O)O)NC(=O)CCC(C(=O)O)N3CCN(CC(=O)[O-])CCN(CC(=O)[O-])CCN(CC(=O)[O-])CC3)c2)CN(C2CCCCC2)c2ccccc21.[Ga+3] (some centres unmarked) [[^natGa]Ga-GAS3]
Found: 4.8

Lookup: Respond only with IC50 recorded for CC(C)(C)C(=O)CN1C(=O)[C@H](NC(=O)Nc2cccc(C(=O)NCCOCCOCCOCCNC(=O)[C@H](CCC(=O)O)NC(=O)CN3CCN(CC(=O)[O-])CCN(CC(=O)[O-])CCN(CC(=O)[O-])CC3)c2)CN(C2CCCCC2)c2ccccc21.[Ga+3] [[^natGa]Ga-GAS1]
Found: 13.8

Lookup: Respond only with IC50 recorded for CC(C)(C)C(=O)CN1C(=O)[C@H](NC(=O)Nc2cccc(C(=O)NCCOCCOCCOCCNC(=O)[C@H](CCC(=O)O)NC(=O)CCC(C(=O)O)N3CCN(CC(=O)O)CCN(CC(=O)O)CC3)c2)CN(C2CCCCC2)c2ccccc21 (some centres unmarked) [GAS2, NODAGA-DGlu-HN(PEG3)NH-Z360]
Found: 4.1
